assaySystem: human NHE-1 (Homo sapiens, UniProt P19634)
Sequence (P19634 whole entry): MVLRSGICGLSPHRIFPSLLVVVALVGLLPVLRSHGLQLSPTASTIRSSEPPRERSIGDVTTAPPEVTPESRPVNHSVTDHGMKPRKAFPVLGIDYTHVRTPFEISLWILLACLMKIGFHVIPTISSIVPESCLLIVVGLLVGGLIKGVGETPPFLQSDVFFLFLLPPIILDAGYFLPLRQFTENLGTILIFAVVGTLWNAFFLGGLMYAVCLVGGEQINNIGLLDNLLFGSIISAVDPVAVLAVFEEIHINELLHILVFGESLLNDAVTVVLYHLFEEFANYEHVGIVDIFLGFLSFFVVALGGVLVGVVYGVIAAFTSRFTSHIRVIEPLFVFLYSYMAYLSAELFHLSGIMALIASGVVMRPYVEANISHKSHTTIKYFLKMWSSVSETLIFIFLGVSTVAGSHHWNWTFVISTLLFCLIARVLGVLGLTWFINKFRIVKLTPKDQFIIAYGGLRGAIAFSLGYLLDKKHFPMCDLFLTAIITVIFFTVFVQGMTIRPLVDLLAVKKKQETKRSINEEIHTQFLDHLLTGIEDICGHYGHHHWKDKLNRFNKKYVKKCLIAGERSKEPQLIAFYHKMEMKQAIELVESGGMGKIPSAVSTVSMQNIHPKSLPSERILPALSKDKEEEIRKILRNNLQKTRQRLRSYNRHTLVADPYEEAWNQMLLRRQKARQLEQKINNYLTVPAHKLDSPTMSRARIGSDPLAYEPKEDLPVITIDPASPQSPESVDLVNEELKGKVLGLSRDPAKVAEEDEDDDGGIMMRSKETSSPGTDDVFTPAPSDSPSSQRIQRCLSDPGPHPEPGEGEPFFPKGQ
assayMethodText: NHE-1 inhibition, FLIPR assay measuring recovery of pHi in transfected cell lines
settings: pHi recovery in transfected LAP-1 cell lines expressing human NHE-1, read-out: NHE1 inhibition IC50
metricName: IC50 (nM)
Your answer is read as nM, so omit the unit and give the number.

Use the examples below as a reference point.
compound: Cc1cc(N(C)c2cccc(S(F)(F)(F)(F)F)c2)c(S(C)(=O)=O)cc1C(=O)N=C(N)N [Example 7]
IC50, nM: 14.5

compound: Cc1cc(Sc2ccc(S(F)(F)(F)(F)F)cc2)c(S(C)(=O)=O)cc1C(=O)N=C(N)N [Example 3]
IC50, nM: 4.7

compound: Cc1cc(N(C)c2ccc(S(F)(F)(F)(F)F)cc2)c(S(C)(=O)=O)cc1C(=O)N=C(N)N [Example 8]
IC50, nM: 3.7

compound: Cc1cc(-c2ccc(S(F)(F)(F)(F)F)cc2)c(S(C)(=O)=O)cc1C(=O)N=C(N)N [Example 9]
IC50, nM: 2.1

API: the following record is the query input.
Item: Cc1cc(Nc2ccc(S(F)(F)(F)(F)F)cc2)c(S(C)(=O)=O)cc1C(=O)N=C(N)N [Example 6] Test system: human NHE-1 (Homo sapiens, UniProt P19634) Read-out: IC50 Value: ?
27.1

From: patent US7381841B2
